# TEST_DESCRIPTION: Equilibrium solubility in water, pH 7.4 phosphate buffer, SGF and SIF
# Format: physicochemical
# REPORTED_CONDITIONS: simulated gastric fluid, thermodynamic from solid; SGF pH 1.2, 37 °C, 48 h; read-out: Solubility, SGF
MEASURED_PROPERTY: solubility at 48 h (µg/mL)
Kindly provide the numeric value in µg/mL only, without the unit symbol.

Query: For the molecule COc1ccc(-c2cc(=O)c3c(O)cc(O)cc3o2)cc1 [acacetin, Acacetin] , give its reported solubility at 48 h.
Reply: 0.0593

----------
# TEST_DESCRIPTION: Equilibrium solubility in water, pH 7.4 phosphate buffer, SGF and SIF
# Assay type: physicochemical
# REPORTED_CONDITIONS: water, pH 7.4 phosphate buffer, SGF and SIF, pH 7.4; upper bound over all four media; read-out: Solubility in water, pH 7.4 buffer, SGF, and SIF
MEASURED_PROPERTY: solubility at 48 h

Query: Please indicate solubility at 48 h recorded for COc1ccc(-c2cc(=O)c3c(O)cc(O)cc3o2)cc1 [acacetin, Acacetin]
Reply: ≤ 0.119 µg/mL
